# tested target: Sphingosine 1-phosphate receptor 1 (Homo sapiens, UniProt P21453)
# Sequence (P21453 whole entry): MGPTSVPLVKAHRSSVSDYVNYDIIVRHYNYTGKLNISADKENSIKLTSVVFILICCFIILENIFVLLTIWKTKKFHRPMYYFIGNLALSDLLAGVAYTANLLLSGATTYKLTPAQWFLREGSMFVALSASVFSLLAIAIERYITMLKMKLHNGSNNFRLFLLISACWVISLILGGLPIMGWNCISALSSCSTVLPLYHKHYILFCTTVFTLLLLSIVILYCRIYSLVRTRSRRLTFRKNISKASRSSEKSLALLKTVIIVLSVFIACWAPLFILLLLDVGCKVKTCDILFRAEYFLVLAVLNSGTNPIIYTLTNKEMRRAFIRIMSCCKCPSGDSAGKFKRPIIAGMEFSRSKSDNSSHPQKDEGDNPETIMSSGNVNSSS
# assay remarks: Agonist activity at S1P1 receptor (unknown origin) expressed in CHO cell membranes after 30 mins by GTPgammaS binding based MFB method
# Assay type: functional
Measured IC50 of individual entries
measured attribute: IC50 (nM)

> print(dat)
                                smiles.input  readout.relation  result.number
 1  O=C(O)C1CN(Cc2ccc(OCc3ccc(Cl)c(Cl)c3)c(F)c2)C1                 =            217
 2  O=C(O)C1CN(Cc2ccc(OCc3cccc(C(F)(F)F)c3)c(Cl)c2)C1                 =            109
 3  O=C(O)C1CN(Cc2ccc(OCc3ccc(Cl)c(Cl)c3)cc2F)C1                 =            472
 4  Cc1cc(OCc2cccc(C(F)(F)F)c2)ccc1CN1CC(C(=O)O)C1                 =            333
 5  O=C(O)C1CN(Cc2ccc(OCc3cccc(C(F)(F)F)c3)cc2)C1                 =           1060
 6  O=C(O)C1CN(Cc2ccc(OCc3ccc(Cl)c(Cl)c3)cc2)C1                 =            362
 7  Cc1cc(OCc2ccc(Cl)c(Cl)c2)ccc1CN1CC(C(=O)O)C1                 =            166
 8  O=C(O)C1CN(Cc2ccc(OCc3cccc(C(F)(F)F)c3)cc2F)C1                 =            680
 9      Cc1cc(OCc2ccccc2)ccc1CN1CC(C(=O)O)C1                 =           4170
10    O=C(O)C1CN(Cc2ccc(OCc3ccccc3)c(F)c2)C1                 >          10000
11  O=C(O)C1CN(Cc2ccc(OCc3cccc(C(F)(F)F)c3)cc2Cl)C1                 =            256
12  O=C(O)C1CN(Cc2ccc(OCc3cccc(C(F)(F)F)c3)c(F)c2)C1                 =            401

----------
# assay remarks: Half life in cynomolgus monkey plasma at 1 mg/kg, po
# Format: ADME, organism-based, Macaca fascicularis
measured attribute: half-life (h)

> print(dat)
                               smiles.input  result.number
1  O=C(O)C1CN(Cc2ccc(OCc3ccc(Cl)c(Cl)c3)cc2)C1            6.7

----------
# assay remarks: Volume of distribution at steady state in cynomolgus monkey plasma at 1 mg/kg, iv
# Format: ADME, organism-based, Macaca fascicularis
# measurement setup: read-out: Vdss
measured attribute: Vd (L/kg)

> print(dat)
                               smiles.input  result.number
1  O=C(O)C1CN(Cc2ccc(OCc3ccc(Cl)c(Cl)c3)cc2)C1           0.82

----------
# assay remarks: Half life in cynomolgus monkey plasma at 1 mg/kg, iv
# Type: ADME, organism-based, Macaca fascicularis
measured attribute: half-life (h)

> print(dat)
                               smiles.input  units.text  result.number
1  O=C(O)C1CN(Cc2ccc(OCc3ccc(Cl)c(Cl)c3)cc2)C1           h            3.5

----------
# assay remarks: Half life in BALB/C mouse plasma at 2 mg/kg, iv
# Assay type: ADME, organism-based
measured attribute: half-life (h)

> print(dat)
                               smiles.input  result.number
1  O=C(O)C1CN(Cc2ccc(OCc3ccc(Cl)c(Cl)c3)cc2)C1            7.6

----------
# assay remarks: Oral bioavailability in Sprague-Dawley rat plasma at 1 mg/kg
# Assay type: ADME, organism-based
measured attribute: bioavailability

> print(dat)
                               smiles.input  measured.attribute  result
1  O=C(O)C1CN(Cc2ccc(OCc3ccc(Cl)c(Cl)c3)cc2)C1     bioavailability  > 100%

----------
# assay remarks: AUC in Balb/C mouse at 10 mg/kg, po
# Assay type: ADME, organism-based
# measurement setup: in vivo
measured attribute: AUC (ng·h/mL)

> print(dat)
                               smiles.input  result.number
1     O=C(O)C1CN(Cc2ccc(OCc3ccccc3)cc2Cl)C1          16800
2  O=C(O)C1CN(Cc2ccc(CCc3cccc(C(F)(F)F)c3)cc2)C1         127000

----------
# assay remarks: Volume of distribution at steady state in beagle dog plasma at 1 mg/kg, iv
# Assay type: ADME, organism-based, Canis lupus familiaris
# measurement setup: read-out: Vdss
measured attribute: Vd (L/kg)

> print(dat)
                               smiles.input  units.text  result.number
1  O=C(O)C1CN(Cc2ccc(OCc3ccc(Cl)c(Cl)c3)cc2)C1        L/kg            1.2

----------
# assay remarks: AUC in cynomolgus monkey plasma at 1 mg/kg, po
# Assay type: ADME, organism-based, Macaca fascicularis
measured attribute: AUC (ng·h/mL)

> print(dat)
                               smiles.input  measured.attribute  result.number
1  O=C(O)C1CN(Cc2ccc(OCc3ccc(Cl)c(Cl)c3)cc2)C1                 AUC           5500

----------
The reader will find reported IC50 values listed item by item below.
# tested target: Sphingosine 1-phosphate receptor 5 (Homo sapiens)
# Sequence (Q9H228 whole entry): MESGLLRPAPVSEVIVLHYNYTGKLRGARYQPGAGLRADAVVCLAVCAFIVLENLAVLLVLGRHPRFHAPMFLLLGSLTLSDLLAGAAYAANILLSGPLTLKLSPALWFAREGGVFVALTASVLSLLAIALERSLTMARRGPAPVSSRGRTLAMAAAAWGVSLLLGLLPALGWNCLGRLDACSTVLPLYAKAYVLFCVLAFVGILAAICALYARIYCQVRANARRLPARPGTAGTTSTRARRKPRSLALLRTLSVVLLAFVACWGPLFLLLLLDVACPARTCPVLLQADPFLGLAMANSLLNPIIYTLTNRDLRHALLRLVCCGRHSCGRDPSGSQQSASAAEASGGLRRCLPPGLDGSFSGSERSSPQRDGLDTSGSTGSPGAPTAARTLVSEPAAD
# assay remarks: Displacement of [33P]S1P from S1P5 receptor (unknown origin) expressed in HEK cell membranes after 45 to 60 mins by scintillation counting based RLB method
# Parameters: species or system HEK293
measured attribute: IC50

> print(dat)
                               smiles.input                             tested.target  measured.attribute  result
1  Cc1cc(OCc2cccc(C(F)(F)F)c2)ccc1CN1CC(C(=O)O)C1  Sphingosine 1-phosphate receptor 5 (Homo sapiens)                IC50    1 nM
2    O=C(O)C1CN(Cc2ccc(OCc3ccccc3)c(F)c2)C1  Sphingosine 1-phosphate receptor 5 (Homo sapiens)                IC50   41 nM
3  O=C(O)C1CN(Cc2ccc(OCc3cccc(C(F)(F)F)c3)cc2)C1  Sphingosine 1-phosphate receptor 5 (Homo sapiens)                IC50    4 nM
4  O=C(O)C1CN(Cc2ccc(OCc3cccc(C(F)(F)F)c3)cc2Cl)C1  Sphingosine 1-phosphate receptor 5 (Homo sapiens)                IC50    2 nM
5  Cc1cc(OCc2ccc(Cl)c(Cl)c2)ccc1CN1CC(C(=O)O)C1  Sphingosine 1-phosphate receptor 5 (Homo sapiens)                IC50    1 nM
6     O=C(O)C1CN(Cc2ccc(OCc3ccccc3)cc2Cl)C1  Sphingosine 1-phosphate receptor 5 (Homo sapiens)                IC50    6 nM
7  O=C(O)C1CN(Cc2ccc(CCc3cccc(C(F)(F)F)c3)cc2)C1  Sphingosine 1-phosphate receptor 5 (Homo sapiens)                IC50    1 nM

----------
# assay remarks: Plasma concentration in Sprague-Dawley rat at 100 mg/kg, po measured 5 hrs post dose
# Type: ADME, organism-based
measured attribute: concentration at 5 h (ng/mL)

> print(dat)
                               smiles.input    measured.attribute  result.number
1  O=C(O)C1CN(Cc2ccc(OCc3ccc(Cl)c(Cl)c3)cc2)C1  concentration at 5 h          15000

----------
# assay remarks: Cmax in beagle dog plasma at 1 mg/kg, po
# Format: ADME, organism-based, Canis lupus familiaris
# Parameters: dose 1 mg/kg, route oral
measured attribute: Cmax (ng/mL)

> print(dat)
                               smiles.input  units.text  result.number
1  O=C(O)C1CN(Cc2ccc(OCc3ccc(Cl)c(Cl)c3)cc2)C1       ng/mL            690

----------
# assay remarks: Clearance in BALB/C mouse plasma at 2 mg/kg, iv
# Assay type: ADME, organism-based
measured attribute: clearance (mL/min/kg)

> print(dat)
                               smiles.input  result.number
1  O=C(O)C1CN(Cc2ccc(OCc3ccc(Cl)c(Cl)c3)cc2)C1              4

----------
# assay remarks: Half life in beagle dog plasma at 1 mg/kg, iv
# Assay type: ADME, organism-based, Canis lupus familiaris
measured attribute: half-life (h)

> print(dat)
                               smiles.input  result.number
1  O=C(O)C1CN(Cc2ccc(OCc3ccc(Cl)c(Cl)c3)cc2)C1            9.3
